// provenance: PubChem BioAssay (NCI)

Test system: ACHN renal
Assay: NCI tumour cell line growth inhibition, 48 h; in the data active means GI50 below about 0.43 µM; inactive means the rest
Outcome codes: true = active, false = inactive

| molecule | classification |
| --- | --- |
| COc1ccc(C2CC(=O)Nc3c2c(C)nn3-c2nc3ccccc3[nH]2)cc1OC (stereo unspecified) | false |
| O=C(Nc1cccc(Cl)c1)Nc1cc(C(F)(F)F)ccc1Cl | false |
| O=C(COc1ccc(Cl)cc1Cl)NNc1ccc([N+](=O)[O-])cc1 | false |
| CC(=O)OCc1cc[c]([Hg][Cl])o1 | false |
| COc1cc2cc(C(=O)Nc3ccccc3)c(N)nc2cc1OC | false |
| CCCN1CCN(c2ccc3nc(-c4ccc5nc(-c6ccc(OCC)cc6)[nH]c5c4)[nH]c3c2)CC1 | false |
| CN1c2cccc[c]2[Sn]([CH3])([CH3])[c]2ccccc21 | true |
| c1ccc(OCC[P+](c2ccccc2)(c2ccccc2)c2ccccc2)cc1 | false |
| Nc1cc2c3ccccc3ccc2c2ccccc12 | false |
| O=C(Nc1c(Cl)cccc1Cl)Oc1cccc2cccnc12 | false |
| CC1(/C=C/c2ccc(-c3ccccc3)cc2)CCn2cnc3ncnc(c32)N1O (stereo unspecified) | true |

* * *

compounds and their reported TGI
Tested on: UACC-62 melanoma
Assay: NCI tumour cell line growth inhibition, 48 h

| compound | TGI |
| --- | --- |
| Cc1nc2cc3[nH]c4ccccc4c(=O)c3cc2s1 | > 100 µM |
| CC(=O)Nc1ccc(S(=O)(=O)Nc2cnc3ccccc3n2)cc1 | > 100 µM |
| CN(C)c1ccc(/C=C(\C#N)C(=O)c2ccccc2)cc1Br | > 100 µM |
| CN1C(=O)CC(CC(=O)C2CCCCC2=O)CC1=O (stereo unspecified) | > 100 µM |
| c1ccc(C(OCCN2CC3CCC(C2)N3)c2ccccc2)cc1 | 64.3 µM |
| C=c1c2ccccc2oc2nc3[nH]c(N)c(C#N)c(N)c3c(=N)c12 | > 100 µM |

* * *

Test system: SN12C renal
Test: NCI tumour cell line growth inhibition, 48 h
measuredMetric: TGI

| compound | measuredMetric | readoutValue |
| --- | --- | --- |
| O=C1C(Nc2ccc(S(=O)(=O)Nc3cnc4ccccc4n3)cc2)=CC(=Nc2ccc(S(=O)(=O)Nc3cnc4ccccc4n3)cc2)c2ccccc21 | TGI | 30.6 µM |
| C=C1C(=O)OC2C=C(C)CC3C=C(CCC=C(C)CCC12)C(=O)O3 (centres undefined) | TGI | 157 µM |
| Clc1ccc(Nc2nnc(COc3ccccc3)c3ccccc23)cc1 | TGI | 8.07 µM |
| Oc1ccccc1-c1cnnc(-c2ccccc2O)c1 | TGI | > 100 µM |
| Nc1nc(N)c2c(n1)NC(c1ccc(Cl)cc1)C1CCc3ccccc3C1=N2 (centres undefined) | TGI | 21.7 µM |
| Nc1nc(Cl)cc(Oc2ccc(Cl)cc2)n1 | TGI | > 100 µM |
| Nc1cc2c3ccccc3ccc2c2ccccc12 | TGI | > 100 µM |
| Nc1nc(Cl)cc(OCC2(CO)CCCCC2)n1 | TGI | > 100 µM |
| COc1cc([C@@H]2c3cc4c(cc3[C@H](OC3OC5COC(C(C)C)OC5C(O)C3O)C3COC(=O)[C@@H]32)OCO4)cc(OC)c1OC (some centres undefined) | TGI | > 100 µM |
| COc1cc(N2CCN(C(C)C)CC2)ccc1Nc1nc(Nc2ccc(F)cc2C(N)=O)c2cc[nH]c2n1 | TGI | 5.9 µM |
| OCC1OC(n2cnc3cc(Cl)c(Cl)cc32)C(O)C1O (centres undefined) | TGI | 58.4 µM |
| Oc1ccc(Cl)cc1N=Nc1c(O)ccc2ccccc12 | TGI | > 100 µM |
| O=C(Nc1ccc(-c2cn3ccccc3n2)cc1)c1cc(Br)ccc1O | TGI | > 100 µM |
| O=C(NNC(=O)c1ccccc1O)c1cccs1 | TGI | > 100 µM |
| COC1C[C@H](O[C@@H]2C[C@H](O[C@@H]3C[C@H](O[C@@H]4C(=O)c5c(cc6cc(O[C@H]7C[C@@H](O[C@H]8C[C@@H](O)[C@H](O)C(C)O8)[C@H](O)C(C)O7)c(C)c(O)c6c5O)C[C@H]4C(OC)C(=O)[C@@H](O)[C@@H](C)O)OC(C)[C@H]3O)OC(C)[C@@H]2O)OC(C)[C@@H]1O (some centres undefined) | TGI | > 32.5 µM |
| COc1c(C(=O)CC2c3c(cc4oc(C)cc(=O)c4c3OC)OC(=N)C2c2nc3ccccc3[nH]2)c(O)c(OC)c2occc12 (centres undefined) | TGI | > 100 µM |
| COc1ccccc1-c1nc[nH]c1-c1ccccc1OC | TGI | > 100 µM |
| CC1NCCC(CC(=O)O)C1CC(=O)O (centres undefined) | TGI | > 100 µM |
| O=S1(=O)OCCOS(=O)(=O)C1C1c2ccccc2-c2ccccc21 | TGI | > 100 µM |
